The reported measurements were obtained from patent US10214492B2.

protocol: Metabolic stability in human liver microsomes (in vitro t1/2)
Format: in vitro ADME
cond: human liver microsomes, 60 min
measurement-name: Human microsome % 60 min (%)

molecule	measurement-unit	quantitative-result
COc1cc(OC)cc(-c2cc(COC(C)(C)C(=O)O)nn2-c2ccccc2N2CCC2)c1 [Example 251]	%	77
CCC(C)(OCc1cc(-c2cccc(OC)c2)n(Cc2ccccc2Cl)n1)C(=O)O (centres unmarked) [Example 68]	%	95
CC(C)(OCc1cc(-c2cccc(OC3CC3)c2)n(-c2ccc(F)cc2N2CCC2)n1)C(=O)O [Example 183]	%	66

[P] COc1cc(OC)cc(-c2cc(COC(C)(C)C(=O)O)nn2Cc2ccccc2Cl)c1 [Example 224]
[Q] CC(C)(C)COc1cccc(-c2cc(COC(C)(C)C(=O)O)nn2-c2ccccc2N2CCC2)c1 [Example 155]
Could you tell me which of P and Q has the lower Human microsome % 60 min reading? Give the label under which the chosen entry appears.
Q
(Q: 62%, P: 91%)

----------
assay-system: MCT1 (Homo sapiens (Human))
Sequence (P53985 whole entry): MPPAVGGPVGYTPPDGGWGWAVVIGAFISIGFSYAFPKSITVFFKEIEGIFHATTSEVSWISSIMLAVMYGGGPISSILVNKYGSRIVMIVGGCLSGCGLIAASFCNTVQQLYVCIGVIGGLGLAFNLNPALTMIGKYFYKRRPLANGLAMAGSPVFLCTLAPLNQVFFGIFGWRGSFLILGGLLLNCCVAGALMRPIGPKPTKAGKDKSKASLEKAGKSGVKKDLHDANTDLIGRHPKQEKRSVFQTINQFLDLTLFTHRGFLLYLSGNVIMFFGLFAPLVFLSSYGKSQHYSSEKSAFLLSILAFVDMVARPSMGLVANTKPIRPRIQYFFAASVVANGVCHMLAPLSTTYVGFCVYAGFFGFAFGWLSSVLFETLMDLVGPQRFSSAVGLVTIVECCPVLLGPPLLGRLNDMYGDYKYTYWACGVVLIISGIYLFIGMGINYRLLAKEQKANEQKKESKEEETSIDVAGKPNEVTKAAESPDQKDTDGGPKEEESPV
Sequence (P35613 140-385 partner): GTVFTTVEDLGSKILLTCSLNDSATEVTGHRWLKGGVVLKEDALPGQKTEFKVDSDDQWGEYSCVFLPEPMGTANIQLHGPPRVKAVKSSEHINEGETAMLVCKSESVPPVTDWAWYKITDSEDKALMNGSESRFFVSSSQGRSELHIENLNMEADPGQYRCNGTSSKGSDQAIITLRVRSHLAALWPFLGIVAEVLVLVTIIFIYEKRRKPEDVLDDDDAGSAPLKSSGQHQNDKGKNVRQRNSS
protocol: Assay 4: MCT1-mediated lactate transport in BT20 breast cancer cells
Format: cell-based
cond: Table 27
measurement-name: IC50 (nM)

molecule	assay-system	IC50 (nM)
CCOc1ccccc1Cn1nc(COC(C)(C)C(=O)O)cc1-c1cc(Cl)cc(OC)c1	MCT1 (Homo sapiens (Human))	38000
CC(C)(OCc1cc(-c2cccc(OCC3CCC3)c2)n(-c2ccccc2Cl)n1)C(=O)O	MCT1 (Homo sapiens (Human))	27000
COc1cc(OC)cc(-c2cc(COC(C)(C)C(=O)O)nn2-c2ccccc2N(C)C)c1	MCT1 (Homo sapiens (Human))	77000
CC[C@](C)(OCc1cc(-c2cccc(OC)c2)n(Cc2ccccc2Cl)n1)C(=O)O [Example 120]	MCT1 (Homo sapiens (Human))	22000
CN(C)c1ccccc1Cn1nc(COC(C)(C)C(=O)O)cc1-c1cccc(OC2CC2)c1	MCT1 (Homo sapiens (Human))	94000
COc1ccccc1-n1nc(COC(C)(C)C(=O)O)cc1-c1cccc(OC2CC2)c1	MCT1 (Homo sapiens (Human))	94000
CCOc1cc(OCC)cc(-c2cc(COC(C)(C)C(=O)O)nn2-c2ccccc2Cl)c1	MCT1 (Homo sapiens (Human))	28000
CC(C)(OCc1cc(-c2cccc(OC3CC3)c2)n(-c2ccccc2Cl)n1)C(=O)O	MCT1 (Homo sapiens (Human))	30000

[P] COc1ccccc1-n1nc(COC(C)(C)C(=O)O)cc1-c1cccc(OC(C)C)c1
[Q] CC(C)(OCc1cc(-c2cccc(OC3CC3)c2)n(-c2ccccc2OC(F)F)n1)C(=O)O
[R] CC(C)COc1cccc(-c2cc(COC(C)(C)C(=O)O)nn2-c2ccccc2F)c1
Rank ascending by IC50. # list labels per requested ordering
R, P, Q

----------
assay-system: MCT4 (Homo sapiens (Human))
Sequence (O15427 whole entry, looked up): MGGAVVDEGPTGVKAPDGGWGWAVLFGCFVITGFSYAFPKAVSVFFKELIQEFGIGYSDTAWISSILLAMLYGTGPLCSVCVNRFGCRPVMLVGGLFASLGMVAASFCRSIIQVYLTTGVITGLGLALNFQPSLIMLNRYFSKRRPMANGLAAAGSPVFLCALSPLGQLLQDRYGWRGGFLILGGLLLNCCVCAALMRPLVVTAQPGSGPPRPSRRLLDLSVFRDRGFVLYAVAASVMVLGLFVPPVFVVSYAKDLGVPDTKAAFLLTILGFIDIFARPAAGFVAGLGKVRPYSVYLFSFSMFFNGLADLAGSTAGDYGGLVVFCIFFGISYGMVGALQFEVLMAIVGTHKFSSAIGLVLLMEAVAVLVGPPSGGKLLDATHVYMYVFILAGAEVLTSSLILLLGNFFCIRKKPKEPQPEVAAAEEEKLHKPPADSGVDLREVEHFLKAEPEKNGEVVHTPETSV
Sequence (P35613 whole entry partner, looked up): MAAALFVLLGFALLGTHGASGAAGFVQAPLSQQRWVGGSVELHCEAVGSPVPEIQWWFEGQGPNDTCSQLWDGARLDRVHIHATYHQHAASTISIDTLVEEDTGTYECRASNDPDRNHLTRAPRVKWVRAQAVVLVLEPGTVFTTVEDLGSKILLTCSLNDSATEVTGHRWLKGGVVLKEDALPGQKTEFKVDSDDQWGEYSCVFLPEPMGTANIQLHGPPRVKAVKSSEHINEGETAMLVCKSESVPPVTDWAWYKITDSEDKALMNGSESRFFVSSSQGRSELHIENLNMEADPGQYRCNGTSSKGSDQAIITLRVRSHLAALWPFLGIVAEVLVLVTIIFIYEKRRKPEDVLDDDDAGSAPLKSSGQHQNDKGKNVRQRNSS
protocol: Assay 3: MCT4-mediated lactate transport in MDA-MB-231 breast cancer cells
Type: cell-based
cond: MDA-MB-231 cells; lactate transport
measurement-name: IC50 (nM)

Illustrative cases are given below, each with its answer.
compound	measurement-unit	IC50
COc1ccc(-c2cc(COC(C)(C)C(=O)O)nn2Cc2ccccc2Cl)cc1	nM	41
CCOc1ccccc1Cn1nc(COC(C)(C)C(=O)O)cc1-c1ccc2cnn(CC)c2c1	nM	3.5

[A] CC(C)(OCc1cc(-c2cc3ccccc3s2)n(Cc2ccccc2Cl)n1)C(=O)O
[B] CCn1ncc2ccc(-c3cc(COC(C)(C)C(=O)O)nn3Cc3ccccc3Cl)cc21 [Example 151]
Which one would you say has the larger IC50 value: A , or B ? Give the label under which the chosen entry appears.
A
(A: 5.3 nM, B: 3.6 nM)
